# assay details: Tmax in rat at 1 mg/kg, po
# Format: ADME, organism-based
# Set-up: dose 1 mg/kg, route oral
# applied conditions: in vivo
property name: Tmax
Write the numeric value and follow it with the unit.

## Input Returns the measured Tmax for the input compound. Input: CN(c1ccc(Cl)cc1)c1nc(=O)c2cccnc2s1
## Output 15 min

====

# assay details: AUC(infinity) in rat at 1 mg/kg, iv
# Assay type: ADME, organism-based
# Parameters: time infinity, dose 1 mg/kg, route intravenous
# applied conditions: plasma
property name: AUC(0-inf) (ng·h/mL)
Express your answer in ng·h/mL, writing the number without its unit.

## Input Returns the measured AUC(0-inf) for the input molecule. Input: CN(c1ccc(Cl)cc1)c1nc(=O)c2cccnc2s1
## Output 542

====

# assay details: Half life in rat at 1 mg/kg, iv
# Format: ADME, organism-based
# Set-up: dose 1 mg/kg, route intravenous
# applied conditions: in vivo
property name: half-life (min)
Express your answer in min, writing the number without its unit.

## Input Returns the measured half-life for the input compound. Input: CN(c1ccc(Cl)cc1)c1nc(=O)c2cccnc2s1
## Output 26.4

====

# assay details: AUC(infinity) in rat at 1 mg/kg, po
# Type: ADME, organism-based
# Set-up: time infinity, dose 1 mg/kg, route oral
# applied conditions: plasma
property name: AUC(0-inf) (ng·h/mL)
Express your answer in ng·h/mL, writing the number without its unit.

## Input Returns the measured AUC(0-inf) for the input compound. Input: CN(c1ccc(Cl)cc1)c1nc(=O)c2cccnc2s1
## Output 472

====

# assay details: Volume of distribution at steady state in rat at 1 mg/kg, iv
# Format: ADME, organism-based
# Design: dose 1 mg/kg, route intravenous
# applied conditions: in vivo, read-out: Vdss
property name: Vd (L/kg)
Express your answer in L/kg, writing the number without its unit.

## Input Returns the measured Vd for the input compound. Input: CN(c1ccc(Cl)cc1)c1nc(=O)c2cccnc2s1
## Output 1.18

====

# assay details: Total clearance in rat at 1 mg/kg, iv
# Format: ADME, organism-based
# Set-up: dose 1 mg/kg, route intravenous
# applied conditions: in vivo
property name: clearance

## Input Returns the measured clearance for the input compound. Input: CN(c1ccc(Cl)cc1)c1nc(=O)c2cccnc2s1
## Output 30.8 mL/min/kg

====

# assay details: Half life in rat at 1 mg/kg, po
# Assay type: ADME, organism-based
# Design: dose 1 mg/kg, route oral
# applied conditions: in vivo
property name: half-life (min)
Express your answer in min, writing the number without its unit.

## Input Returns the measured half-life for the input molecule. Input: CN(c1ccc(Cl)cc1)c1nc(=O)c2cccnc2s1
## Output 34.8
